The origin of these recorded values is PubChem BioAssay AID2060493.

# Tested on: 616215-338-R-J1-PDC tumor spheroids, viability
# Assay Notes: Anticancer human tumor 616215-338-R-J1-PDC patient-derived colon adenocarcinoma cell line growth inhibition [GQUAD]
# Settings: curve of first compound; second compound 1 µM; spheroids with HUVEC and MSC
# From the text: DNA G-quadruplex Stabilizer Agents in Combinations in Complex Spheroids A high-throughput screen of multi-cell type tumor spheroids was designed to identify active combinations of DNA G-quadruplex stabilizer agents and targeted small molecules. […] Compounds. […] If the clinical Cmax for an agent had not been determined, the highest concentration tested was 10 microM. […]
Kindly state IC50 for each of the entries shown.

For every listed record, write down its IC50.
1. CC1COCCN1c1cc(C2(O)CC3CCC(C2)O3)c2cnn(-c3ccn[nH]3)c2n1 (stereo not given) + Cc1cnc(CNC(=O)c2c(=O)c3ccc(N4CCCN(C)CC4)nc3n3c2sc2ccccc23)cn1
2. COc1ncnc(C2CC2)c1-c1ncc2cnn(Cc3ccc(-c4nc(C(F)(F)F)cn4C(C)C)cc3)c2n1 + Cc1[nH]c2ccc(F)cc2c1-c1nc2c3cccnc3c3ncccc3c2[nH]1
3. CC(=O)O[C@H]1C(=O)[C@@]2(C)[C@H]([C@H](OC(=O)c3ccccc3)[C@]3(O)C[C@H](OC(=O)[C@H](O)[C@@H](NC(=O)c4ccccc4)c4ccccc4)C(C)=C1C3(C)C)[C@]1(OC(C)=O)CO[C@@H]1C[C@@H]2O + Cc1cnc(CNC(=O)c2c(=O)c3ccc(N4CCCN(C)CC4)nc3n3c2sc2ccccc23)cn1
4. O=C(NO)c1cnc(N2CCN(S(=O)(=O)c3ccc4ccccc4c3)CC2)nc1 + Cc1cnc(CNC(=O)c2c(=O)c3ccc(N4CCCN(C)CC4)nc3n3c2sc2ccccc23)cn1
5. C=CCn1c(=O)c2cnc(Nc3ccc(N4CCN(C)CC4)cc3)nc2n1-c1cccc(C(C)(C)O)n1 + Cc1[nH]c2ccc(F)cc2c1-c1nc2c3cccnc3c3ncccc3c2[nH]1

1: < 31.6 nM; 2: > 10000 nM; 3: < 31.6 nM; 4: < 31.6 nM; 5: 342 nM

* * *

# System: 616215-338-R-J1-PDC tumor spheroids, viability
# Assay Notes: Anticancer human tumor 616215-338-R-J1-PDC cell line growth inhibition [GQUAD];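 note: spheroids exposed to agents for 7 days before readout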
# Settings: curve of first compound; second compound 10 µM; spheroids with HUVEC and MSC
Readout Name: IC50 (µM)
Answers are plain numbers, in µM.

Compound	Unit Descriptor	IC50
C=CCn1c(=O)c2cnc(Nc3ccc(N4CCN(C)CC4)cc3)nc2n1-c1cccc(C(C)(C)O)n1 + Cc1[nH]c2ccc(F)cc2c1-c1nc2c3cccnc3c3ncccc3c2[nH]1	µM	0.227
CCc1c2c(nc3ccc(O)cc13)-c1cc3c(c(=O)n1C2)COC(=O)[C@]3(O)CC + CN(C)c1ccc(Nc2c3ccc(NC(=O)CCN4CCCC4)cc3nc3cc(NC(=O)CCN4CCCC4)ccc23)cc1	µM	0.00862

Field: next compound
Retrieve IC50 on 616215-338-R-J1-PDC tumor spheroids, viability; query CC[C@@]1(O)C(=O)OCc2c1cc1n(c2=O)Cc2cc3c(CN(C)C)c(O)ccc3nc2-1 + Cc1[nH]c2ccc(F)cc2c1-c1nc2c3cccnc3c3ncccc3c2[nH]1
0.186

* * *

# System: 616215-338-R-J1-PDC tumor spheroids, viability
# Assay Notes: Anticancer human tumor 616215-338-R-J1-PDC cell line growth inhibition [GQUAD];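 note: spheroids exposed to agents for 7 days before readout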
# Settings: curve of first compound; second compound 0.316 µM; spheroids with HUVEC and MSC
Readout Name: IC50

Solved entries (count: 3):
Compound	Tested System	IC50
Cc1[nH]c2ccccc2c1CCNCc1ccc(/C=C/C(=O)NO)cc1 + Cc1[nH]c2ccc(F)cc2c1-c1nc2c3cccnc3c3ncccc3c2[nH]1	616215-338-R-J1-PDC tumor spheroids, viability	0.162 µM
CC(=O)O[C@H]1C(=O)[C@@]2(C)[C@H]([C@H](OC(=O)c3ccccc3)[C@]3(O)C[C@H](OC(=O)[C@H](O)[C@@H](NC(=O)c4ccccc4)c4ccccc4)C(C)=C1C3(C)C)[C@]1(OC(C)=O)CO[C@@H]1C[C@@H]2O + Cc1cnc(CNC(=O)c2c(=O)c3ccc(N4CCCN(C)CC4)nc3n3c2sc2ccccc23)cn1	616215-338-R-J1-PDC tumor spheroids, viability	< 0.0316 µM
COc1ncnc(C2CC2)c1-c1ncc2cnn(Cc3ccc(-c4nc(C(F)(F)F)cn4C(C)C)cc3)c2n1 + Cc1[nH]c2ccc(F)cc2c1-c1nc2c3cccnc3c3ncccc3c2[nH]1	616215-338-R-J1-PDC tumor spheroids, viability	> 10 µM

Please give IC50 for each item listed below.
1. CC[C@@]1(O)C(=O)OCc2c1cc1n(c2=O)Cc2cc3c(CN(C)C)c(O)ccc3nc2-1 + Cc1cnc(CNC(=O)c2c(=O)c3ccc(N4CCCN(C)CC4)nc3n3c2sc2ccccc23)cn1
2. CC(C)(O)C1CCC(Nc2ccc3ncc(-c4cccc(C(F)(F)F)c4)n3n2)CC1 (stereo not given) + CN(C)c1ccc(Nc2c3ccc(NC(=O)CCN4CCCC4)cc3nc3cc(NC(=O)CCN4CCCC4)ccc23)cc1
3. C#Cc1c(F)ccc2cc(O)cc(-c3ncc4c(N5CC6CCC(C5)N6)nc(OCC56CCCN5CC(F)C6)nc4c3F)c12 (stereo not given) + Cc1cnc(CNC(=O)c2c(=O)c3ccc(N4CCCN(C)CC4)nc3n3c2sc2ccccc23)cn1
4. Cc1cccc(N(C)C(=O)C2C(O)CCN2c2nc(C)cc(C(F)(F)F)c2C#N)c1 (stereo not given) + Cc1[nH]c2ccc(F)cc2c1-c1nc2c3cccnc3c3ncccc3c2[nH]1

["< 0.000999 µM", "0.64 µM", "< 0.0316 µM", "> 10 µM"]

* * *

# Tested on: 616215-338-R-J1-PDC tumor spheroids, viability
# Assay Notes: Anticancer human tumor 616215-338-R-J1-PDC cell line growth inhibition [GQUAD];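 note: spheroids exposed to agents for 7 days before readout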;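 for viability, T/C: percent viability relative to DMSO vehicle control wells taken as 100%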
# Settings: second compound 0.316 µM; first compound 0.316 µM; stronger effect = lower value; spheroids with HUVEC and MSC
# Excerpt: DNA G-quadruplex Stabilizer Agents in Combinations in Complex Spheroids A high-throughput screen of multi-cell type tumor spheroids was designed to identify active combinations of DNA G-quadruplex stabilizer agents and targeted small molecules. […] Compounds. […] If the clinical Cmax for an agent had not been determined, the highest concentration tested was 10 microM. […]
Readout Name: viability, T/C

The following molecules have reported results that may help.
Molecule	viability, T/C
O=C(NO)c1cnc(N2CCN(S(=O)(=O)c3ccc4ccccc4c3)CC2)nc1 + Cc1[nH]c2ccc(F)cc2c1-c1nc2c3cccnc3c3ncccc3c2[nH]1	74.5%
C=CC(=O)N1CCN(c2nc(=O)n(-c3c(C)ccnc3C(C)C)c3nc(-c4c(O)cccc4F)c(F)cc23)C(C)C1 (stereo unspecified) + CN(C)c1ccc(Nc2c3ccc(NC(=O)CCN4CCCC4)cc3nc3cc(NC(=O)CCN4CCCC4)ccc23)cc1	94.9%

Working through the 4 molecules below one at a time, give viability, T/C for each.
1. O=C(c1cc(Cc2n[nH]c(=O)c3ccccc23)ccc1F)N1CCN(C(=O)C2CC2)CC1 + Cc1[nH]c2ccc(F)cc2c1-c1nc2c3cccnc3c3ncccc3c2[nH]1
2. COc1cc(C2c3cc4c(cc3C(OC3OC5COC(C)OC5C(O)C3O)C3COC(=O)C23)OCO4)cc(OC)c1O (stereo unspecified) + CN(C)c1ccc(Nc2c3ccc(NC(=O)CCN4CCCC4)cc3nc3cc(NC(=O)CCN4CCCC4)ccc23)cc1
3. Cn1ncnc1[C@H]1c2n[nH]c(=O)c3cc(F)cc(c23)N[C@@H]1c1ccc(F)cc1 + Cc1[nH]c2ccc(F)cc2c1-c1nc2c3cccnc3c3ncccc3c2[nH]1
4. CC1COCCN1c1cc(-c2ccnn2C)c2ccnc(-c3ccn[nH]3)c2n1 (stereo unspecified) + Cc1[nH]c2ccc(F)cc2c1-c1nc2c3cccnc3c3ncccc3c2[nH]1

1. 98.9%
2. 63.4%
3. 95.3%
4. 40%

* * *

# System: 616215-338-R-J1-PDC tumor spheroids, viability
# Assay Notes: Anticancer human tumor 616215-338-R-J1-PDC cell line growth inhibition [GQUAD];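 note: spheroids exposed to agents for 7 days before readout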;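 for viability, T/C: percent viability relative to DMSO vehicle control wells taken as 100%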
# Settings: second compound 0.316 µM; first compound 1 µM; stronger effect = lower value; spheroids with HUVEC and MSC
# Source text: DNA G-quadruplex Stabilizer Agents in Combinations in Complex Spheroids A high-throughput screen of multi-cell type tumor spheroids was designed to identify active combinations of DNA G-quadruplex stabilizer agents and targeted small molecules. […] Compounds. […] If the clinical Cmax for an agent had not been determined, the highest concentration tested was 10 microM. […]
Readout Name: viability, T/C (%)
Answers are plain numbers, in %.

// solved cases for viability, T/C follow
Compound	Endpoint Result
O=c1[nH]cc(F)c(=O)[nH]1 + CN(C)c1ccc(Nc2c3ccc(NC(=O)CCN4CCCC4)cc3nc3cc(NC(=O)CCN4CCCC4)ccc23)cc1	39.6
COc1ccc([C@@H](O)c2cc(-c3ncnc4cc(N5CCOCC5)ccc34)c(F)cc2Cl)nn1 + Cc1[nH]c2ccc(F)cc2c1-c1nc2c3cccnc3c3ncccc3c2[nH]1	111
CCCS(=O)(=O)Nc1ccc(F)c(C(=O)c2c[nH]c3ncc(-c4ccc(Cl)cc4)cc23)c1F + Cc1cnc(CNC(=O)c2c(=O)c3ccc(N4CCCN(C)CC4)nc3n3c2sc2ccccc23)cn1	38.4
C#Cc1c(F)ccc2cc(O)cc(-c3ncc4c(N5CC6CCC(C5)N6)nc(OCC56CCCN5CC(F)C6)nc4c3F)c12 (stereo unspecified) + Cc1[nH]c2ccc(F)cc2c1-c1nc2c3cccnc3c3ncccc3c2[nH]1	116
C=CCn1c(=O)c2cnc(Nc3ccc(N4CCN(C)CC4)cc3)nc2n1-c1cccc(C(C)(C)O)n1 + CN(C)c1ccc(Nc2c3ccc(NC(=O)CCN4CCCC4)cc3nc3cc(NC(=O)CCN4CCCC4)ccc23)cc1	23.3

Could I get viability, T/C for every one of these entries?
1. C=CCn1c(=O)c2cnc(Nc3ccc(N4CCN(C)CC4)cc3)nc2n1-c1cccc(C(C)(C)O)n1 + Cc1cnc(CNC(=O)c2c(=O)c3ccc(N4CCCN(C)CC4)nc3n3c2sc2ccccc23)cn1
2. CC(=O)O[C@H]1C(=O)[C@@]2(C)[C@H]([C@H](OC(=O)c3ccccc3)[C@]3(O)C[C@H](OC(=O)[C@H](O)[C@@H](NC(=O)c4ccccc4)c4ccccc4)C(C)=C1C3(C)C)[C@]1(OC(C)=O)CO[C@@H]1C[C@@H]2O + Cc1[nH]c2ccc(F)cc2c1-c1nc2c3cccnc3c3ncccc3c2[nH]1
3. O=C(c1cc(Cc2n[nH]c(=O)c3ccccc23)ccc1F)N1CCN(C(=O)C2CC2)CC1 + Cc1cnc(CNC(=O)c2c(=O)c3ccc(N4CCCN(C)CC4)nc3n3c2sc2ccccc23)cn1
4. C#Cc1c(F)ccc2cc(O)cc(-c3ncc4c(N5CC6CCC(C5)N6)nc(OCC56CCCN5CC(F)C6)nc4c3F)c12 (stereo unspecified) + CN(C)c1ccc(Nc2c3ccc(NC(=O)CCN4CCCC4)cc3nc3cc(NC(=O)CCN4CCCC4)ccc23)cc1
5. Cc1cccc(N(C)C(=O)C2C(O)CCN2c2nc(C)cc(C(F)(F)F)c2C#N)c1 (stereo unspecified) + CN(C)c1ccc(Nc2c3ccc(NC(=O)CCN4CCCC4)cc3nc3cc(NC(=O)CCN4CCCC4)ccc23)cc1
6. Cc1cccc(N(C)C(=O)C2C(O)CCN2c2nc(C)cc(C(F)(F)F)c2C#N)c1 (stereo unspecified) + Cc1cnc(CNC(=O)c2c(=O)c3ccc(N4CCCN(C)CC4)nc3n3c2sc2ccccc23)cn1

1. 30.2
2. 11.6
3. 52.2
4. 105
5. 107
6. 48.9

For each of the items listed, what is its viability, T/C?
1. O=C(NO)c1cnc(N2CCN(S(=O)(=O)c3ccc4ccccc4c3)CC2)nc1 + CN(C)c1ccc(Nc2c3ccc(NC(=O)CCN4CCCC4)cc3nc3cc(NC(=O)CCN4CCCC4)ccc23)cc1
2. Nc1ccn(C2OC(CO)C(O)C2(F)F)c(=O)n1 (stereo unspecified) + Cc1cnc(CNC(=O)c2c(=O)c3ccc(N4CCCN(C)CC4)nc3n3c2sc2ccccc23)cn1
3. CC(C)n1c(=O)n(C)c2cnc3cc(F)c(-c4ccc(OCCCN5CCCCC5)nc4)cc3c21 + CN(C)c1ccc(Nc2c3ccc(NC(=O)CCN4CCCC4)cc3nc3cc(NC(=O)CCN4CCCC4)ccc23)cc1

[0.54, 20.3, 103]

Provide each entry's viability, T/C from the list below.
1. COc1cc(C2c3cc4c(cc3C(OC3OC5COC(C)OC5C(O)C3O)C3COC(=O)C23)OCO4)cc(OC)c1O (stereo unspecified) + Cc1cnc(CNC(=O)c2c(=O)c3ccc(N4CCCN(C)CC4)nc3n3c2sc2ccccc23)cn1
2. CC1COCCN1c1cc(C2(S(C)(=N)=O)CC2)nc(-c2ccnc3[nH]ccc23)n1 (stereo unspecified) + Cc1[nH]c2ccc(F)cc2c1-c1nc2c3cccnc3c3ncccc3c2[nH]1
3. O=C(c1cc(Cc2n[nH]c(=O)c3ccccc23)ccc1F)N1CCN(C(=O)C2CC2)CC1 + CN(C)c1ccc(Nc2c3ccc(NC(=O)CCN4CCCC4)cc3nc3cc(NC(=O)CCN4CCCC4)ccc23)cc1
4. O=C(NO)c1cnc(N2CCN(S(=O)(=O)c3ccc4ccccc4c3)CC2)nc1 + Cc1cnc(CNC(=O)c2c(=O)c3ccc(N4CCCN(C)CC4)nc3n3c2sc2ccccc23)cn1
5. O=C(c1cc(Cc2n[nH]c(=O)c3ccccc23)ccc1F)N1CCN(C(=O)C2CC2)CC1 + Cc1[nH]c2ccc(F)cc2c1-c1nc2c3cccnc3c3ncccc3c2[nH]1
6. CC1COCCN1c1cc(C2(S(C)(=N)=O)CC2)nc(-c2ccnc3[nH]ccc23)n1 (stereo unspecified) + CN(C)c1ccc(Nc2c3ccc(NC(=O)CCN4CCCC4)cc3nc3cc(NC(=O)CCN4CCCC4)ccc23)cc1
7. O=c1[nH]cc(F)c(=O)[nH]1 + Cc1[nH]c2ccc(F)cc2c1-c1nc2c3cccnc3c3ncccc3c2[nH]1

1: 36.3; 2: 101; 3: 106; 4: 0.06; 5: 100; 6: 96.6; 7: 47
